# assay.procedure: counter assay for TAg ATPase ADP read-out – biochemical, ADP-Hunter, fluorescence, counter-screen (AID 2501);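 further: purified T antigen ATPase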
# cond: series mostly up to 100 µM
Screen size: about 2,200 compounds; about 1,200 (55%) were called active. Cut-off not given; nearly all actives show IC50 up to about 92 µM. So high a share suggests a set chosen from earlier hits. The list shows a part of the results.
Outcomes: active, inactive

[[record]]
molecule_smiles = "O=C(CCl)Nc1ccc(N2CCCCCC2)cc1"
class_name = "active"

[[record]]
molecule_smiles = "CN(C)/C=C(\\C#N)C(=O)Nc1ccc(O)cc1F"
class_name = "active"

[[record]]
molecule_smiles = "Cn1c(CCN2CCCCCC2)nc2cc(NC(=O)Nc3ccccc3)ccc21"
class_name = "inactive"

[[record]]
molecule_smiles = "COc1ccc(-c2cc(-c3ccco3)[nH]c(=O)c2C#N)cc1OC"
class_name = "inactive"

